All figures here come from patent US20250163167A1.

target.entity: T1, hIL10Rb-his (Sino Biological, Catalog#10945) (human, UniProt Q08334 20-220)
T1 construct: Bought; also called Sino Biological cat#10945-H08H; not shown: C-terminal poly-His tag
T1 sequence: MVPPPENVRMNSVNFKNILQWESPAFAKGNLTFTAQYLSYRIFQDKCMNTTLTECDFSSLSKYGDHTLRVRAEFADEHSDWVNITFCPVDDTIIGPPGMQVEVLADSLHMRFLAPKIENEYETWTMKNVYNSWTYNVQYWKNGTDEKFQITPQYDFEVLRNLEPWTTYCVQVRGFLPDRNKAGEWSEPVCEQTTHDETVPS
experimental.protocol: SPR; ratio of experimental to calculated Rmax

binder: hIL-10Rb_VHH1 Mono-Fc (Fc fusion, Mono-Fc VHH captured on Protein A; not shown: mono-Fc part) QVQLQESGGGSVQAGGSLRLSCAASGYTYSSGCMGWFRQAPGKEREAVAAINSDGSTSYADSVKGRFTISKDNAKNTLYLQMNSLKPEDTAMYYCAAEPYCSGGYPRWSVAEFGYWGQGTQVTVSS
Surface Activity: 82%
--
binder: hIL-10Rb_VHH26 Mono-Fc (Fc fusion, Mono-Fc VHH captured on Protein A; not shown: mono-Fc part) QVQLQESGGGSVQAGGSLRLSCAASGYSYSSYCMGWFRQAPGKEREGVATIDSDGMTRYADSVKGRFTISKDNAKNTLYLQMNSLKPEDTAMYYCAAPLYDCDSGAVGRNPPYWGQGTQVTVSS
Surface Activity: 54%
--
binder: hIL-10Rb_VHH27 Mono-Fc (Fc fusion, Mono-Fc VHH captured on Protein A; not shown: mono-Fc part) QVQLQESGGGSVQTGGSLRLSCAASGYTYLRGCMGWFRQAPGKEREGVAVMDVVGDRRSYIDSVKGRFTISRDNAANSVYLQMDNLKPEDTAMYYCTAGPNCVGWRSGLDYWGQGTQVTVSS
Surface Activity: 24%
--
binder: hIL-10Rb_VHH15 Mono-Fc (Fc fusion, Mono-Fc VHH captured on Protein A; not shown: mono-Fc part) QVQLQESGGGSVQAGGSLRLSCTVSRYTASVNYMGWFRQAPGKEREGVATIFTGAGTTYYANSVKGRFTISRDNAKNTAYLQMNSLKPEDTAIYYCAVDFRGGLLYRPAYEYTYRGQGTQVTVSS
Surface Activity: 18%
